Cited source for all entries: the supplement of paper PMC9732359

Assay: protein stability index of a GFP-peptide fusion (yeast GPS) (PSI 1-4); higher = more stable; sorted into four equal gates, so the index is relative within each strain
Settings: pdr5∆
The following sequences are shown together with reported protein stability index values.

{"Sequence text": "YKQAMNETSEQLVPIRL [SNF5]", "protein stability index": 3.12}
{"Sequence text": "TVIRGNSIISLEALDAI [SMX2]", "protein stability index": 2.43}
{"Sequence text": "TLLNFVSNNVLRRLEIL [ECM29]", "protein stability index": 1.92}
{"Sequence text": "TGRMRYLKHVSRRFKNG [RPL37A]", "protein stability index": 3.25}
{"Sequence text": "RYSMSEQFPFYLHDNAS [IRR1]", "protein stability index": 3.01}
{"Sequence text": "KDLEIRKLEISSRFKHR [GAL11]", "protein stability index": 2.76}
{"Sequence text": "KLPKVYKRSIVRNYKPL [SWI1]", "protein stability index": 2.99}
{"Sequence text": "RSVDRAGRKFKSRRCDD [POP4]", "protein stability index": 3.16}
{"Sequence text": "MDNPRKLSKILRTEYGW [SNU114]", "protein stability index": 2.99}
{"Sequence text": "MEKESVYNLALKCAERQ [NUT1]", "protein stability index": 2.1}
{"Sequence text": "LESIQKTKEAVAALKAV [RPL4A]", "protein stability index": 3.37}
{"Sequence text": "NARIYNTEGSVVYEDSL [SNF2]", "protein stability index": 3.25}
{"Sequence text": "TVQNEILGDLGKEFGTT [FAS2]", "protein stability index": 2.34}
{"Sequence text": "ALTNELNELKAIKDKLE [YIL149C/MLP2]", "protein stability index": 2.01}
{"Sequence text": "EQKITEIEDGQDGGVTP [RPO21]", "protein stability index": 3.38}
{"Sequence text": "LGHTKAALGEVASMELK [SIR2]", "protein stability index": 2.96}
{"Sequence text": "VTVVDTPPVVVVGVVGY [RPL3]", "protein stability index": 1.41}
{"Sequence text": "ASFYSVNTEKKTIEVTA [RPN3]", "protein stability index": 1.29}
{"Sequence text": "LLRSVLVLLELVSSGDR [YML103C/NUP188]", "protein stability index": 2.03}
{"Sequence text": "NFETEWNLQTLAADDAF [RPB11]", "protein stability index": 2.83}
{"Sequence text": "PFSLTYVRTEETDGKHG [YMR129W/POM152]", "protein stability index": 3.28}
{"Sequence text": "QIFVRGSQIKFIVVPDL [SMD3]", "protein stability index": 2.35}
{"Sequence text": "ANETDKRPTPPSFTFGG [YOR098C/NUP1]", "protein stability index": 3.18}
{"Sequence text": "LIYGISDEERDDEDDEH [AAR2]", "protein stability index": 3.05}
{"Sequence text": "ELQKLVHDLNKYKSNTN [SMC2]", "protein stability index": 3.31}
{"Sequence text": "PPTTSNLIIFLYKFNGW [YML103C/NUP188]", "protein stability index": 2.26}
{"Sequence text": "PGGILRAQHVKKLATRP [RPL34A]", "protein stability index": 3.39}
{"Sequence text": "ERYYELAFDKLNVPVFQ [ARP7]", "protein stability index": 2.17}
{"Sequence text": "IEQSITKNIPITHRDLH [SSN8]", "protein stability index": 2.92}
{"Sequence text": "LVREIAQDFKTDLRFQS [HHT1]", "protein stability index": 3}
{"Sequence text": "NTLYTAIITDDLDTVLK [SRP72]", "protein stability index": 2.5}
{"Sequence text": "KQERSKQERLKENEESL [PRP28]", "protein stability index": 3.62}
{"Sequence text": "QIKTLPEQYSDILLNER [AAR2]", "protein stability index": 3.24}
{"Sequence text": "VIYRNSLYKVSFLEKPK [YMR129W/POM152]", "protein stability index": 2.61}
{"Sequence text": "YATKLSKFTKIPPTFDK [MED4]", "protein stability index": 3.28}
{"Sequence text": "MVLFNIYDDWLDRISSY [PRP8]", "protein stability index": 2.47}
{"Sequence text": "SSSKQQSRLFINELVLE [SMC4]", "protein stability index": 2.95}
{"Sequence text": "SARNYDKFKLNENDLKT [SMC1]", "protein stability index": 2.46}
{"Sequence text": "GSDKQMFTQIYLERIEL [YML103C/NUP188]", "protein stability index": 2.36}
{"Sequence text": "NNVVINFKDMSHVNKYG [PRP8]", "protein stability index": 2.6}
{"Sequence text": "CLSDYTKKISNFNSSLH [YJL039C/NUP192]", "protein stability index": 2.04}
{"Sequence text": "LPGKVNTKEEFAAAPND [SNF5]", "protein stability index": 2.91}
{"Sequence text": "EEAAEESDDDMGFGLFD [RPP1B]", "protein stability index": 2.87}
{"Sequence text": "NINEVKKASDLVDTPSN [NUT1]", "protein stability index": 2.97}
{"Sequence text": "DQDKVNFASGDNNTASN [RPB3]", "protein stability index": 2.36}
{"Sequence text": "NGVVKKAAAGAGSAALK [RPO31]", "protein stability index": 3.11}
{"Sequence text": "GRLEIFKIHTAKVKKTG [RPT4]", "protein stability index": 2.89}
{"Sequence text": "FGVSFIYAGYDDRYGYQ [PRE9]", "protein stability index": 2.61}
{"Sequence text": "RVKAMEVDEKPTETYSD [RPT5]", "protein stability index": 3.32}
{"Sequence text": "AMQYVCGDSIICNTLNI [SMC1]", "protein stability index": 1.65}
{"Sequence text": "QITKFPKYRDNLATWYH [SSN3]", "protein stability index": 2.88}
{"Sequence text": "FTNRIPSKTPEVYMRYR [SWI3]", "protein stability index": 1.88}
{"Sequence text": "PSHYPHPYEYEIDHQEY [RRP6]", "protein stability index": 2.58}
{"Sequence text": "SYAGKQVVGPFHTSFSA [SMC4]", "protein stability index": 3.33}
{"Sequence text": "FQLIDMKDKEINIQKYN [CSI1]", "protein stability index": 1.98}
{"Sequence text": "RRLHDENLMVQRTCLMT [YCS4]", "protein stability index": 2.44}
{"Sequence text": "KDIAKRQFKEILTVKEE [RRP40]", "protein stability index": 2.4}
{"Sequence text": "GESIMSEEPTDFGFDLD [MCD1]", "protein stability index": 3.25}
{"Sequence text": "RKHKRVSPNAAPRQEIS [YAR002W/NUP60]", "protein stability index": 2.89}
{"Sequence text": "ESVELPLTHPELYEEMG [RPT2]", "protein stability index": 2.94}
